Target: T1, anti-CD28 Fab (SEQ ID NOs: 202, 203)
T1 construct: biotinylated when captured in the phage ELISAs
T1 sequence (VH, as listed by the source, chain 1 of 2): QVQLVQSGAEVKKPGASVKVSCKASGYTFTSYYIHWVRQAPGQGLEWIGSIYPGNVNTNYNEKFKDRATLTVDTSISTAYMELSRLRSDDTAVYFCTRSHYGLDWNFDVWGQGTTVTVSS
T1 sequence (VL, as listed by the source, chain 2 of 2): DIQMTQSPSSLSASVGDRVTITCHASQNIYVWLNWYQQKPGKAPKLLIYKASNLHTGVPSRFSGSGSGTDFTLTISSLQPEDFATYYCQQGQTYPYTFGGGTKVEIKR
Assay: binding ELISA, peptide captured, anti-CD28 Fab titrated
No end group written: not given here.
READOUT: EC50 (nM)
Quick note: give the figure in nM, leave out the unit.

Quick check: EC50 of SCAAGASYAWPYCL (cysteine pairing not given here; also: biotinylated, site not given here) [Peptide-44] ?
54

Similarly, YCAGHAWQYINKCL (cysteine pairing not given here; also: biotinylated, site not given here) [Peptide-39] ?
49

Input MDWCPRDLWVHCFA (cysteine pairing not given here; also: biotinylated, site not given here) [Peptide-1]
490

Moving on to ACDTYFAGMINECF (cysteine pairing not given here; also: biotinylated, site not given here) [Peptide-31]
97

Can you handle YCAGHSPINIGKCL (cysteine pairing not given here; also: biotinylated, site not given here) [Peptide-36] next?
337
